This collection of values is drawn from patent US20130303500A1.

Give TGI for every item shown.
tested on: H460 (Lung) cells; experiment: Sulforhodamine B (SRB) assay, H460; format: cell-based, human; conditions: H460 Lung, SRB, 48 h

So what TGI did C=C1CC2C(CC[C@]3(C)C(=O)C(F)CC23)[C@@]2(C)CCC(=NOC3CCNC3)CC12 (stereo partly shown) [Compound 6] get with H460 (Lung) cells? 8 nM

So what TGI did C[C@]12CCC(=NOC3CCNC3)CC1CCC1C2CC[C@]2(C)C(=O)C(F)CC12 (stereo partly shown) [Compound 2] get with H460 (Lung) cells? 7 nM

So what TGI did CON=C1CC2C(CC[C@]3(C)C(=O)C(F)CC23)[C@@]2(C)CCC(=NOC3CCNC3)CC12 (stereo in doubt) [Compound 8] get with H460 (Lung) cells? 27 nM

So what TGI did C[C@]12CCC3C(CC(=O)[C@H]4CC(=NO[C@H]5CCNC5)CC[C@]34CO)C1CCC2=O (stereo partly shown) [Compound 28] get with H460 (Lung) cells? >100000 nM
